measured property: melting point

[Q] Name the reported melting point value associated with the compound CC1(C)c2ccc(CCN3CCN(c4nsc5ccccc45)CC3)cc2C(C)(C)C1O (centres unmarked) [Example 83]
[A] 47 to 49 °C

[Q] Name the reported melting point value associated with the compound CC1(C)C(=O)C(C)(C)c2cc(C(F)CN3CCN(c4nsc5ccccc45)CC3)ccc21 (centres unmarked) [Example 78]
[A] 64 to 73 °C

[Q] Name the reported melting point value associated with the compound CC1(C)C(=O)C(C)(C)c2cc(C(O)CN3CCN(c4nsc5ccccc45)CC3)ccc21 (centres unmarked) [Example 77]
[A] 189 to 191 °C

[Q] Name the reported melting point value associated with the compound CC(=O)NC1C(C)(C)c2ccc(CCN3CCN(c4nsc5ccccc45)CC3)cc2C1(C)C (centres unmarked) [Example 109]
[A] 75 to 80 °C

[Q] Name the reported melting point value associated with the compound CC(=O)NC1C(C)(C)c2ccc(CCN3CCN(c4noc5ccccc45)CC3)cc2C1(C)C.CS(=O)(=O)O (centres unmarked)
[A] 197 to 205 °C
